Attribution: the RNAGym collection of RNA variant scans (doi:10.1093/nar/gkz1192)

B1: CPEB3 Ribozyme (parent)
chain: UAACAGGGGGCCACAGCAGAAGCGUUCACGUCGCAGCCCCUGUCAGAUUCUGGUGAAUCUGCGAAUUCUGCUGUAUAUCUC

# Variants of: B1
# Experiment: self-cleavage, relative activity (ratio to wild type); higher = more cleavage; in vitro, sequencing
Would you mind telling me the reported self-cleavage of each entry?
Answers are plain numbers.

[[record]]
mutation_name = "C40U U51G"
property_label = "self-cleavage"
endpoint_result = 0.49


Record self-cleavage per entry; entries follow.
1. C27A A64U
2. C14U U51C
3. U54G A57U
4. U49A C79U
5. G7C U49A
6. U49C U76A

0.2
1.25
0.25
1.07
0.26
0.49

Hi! Can you tell me self-cleavage for each of these variants?
1. C38U A45G
2. A47G C68U
3. A15G G22U
4. C38A A56U

[0.58, 0.89, 0.46, 0.27]
